Target: T1, human IL-17A (human, UniProt Q16552 20-155, limits assumed)
T1 construct: Bought from R&D Systems; also called IL-17 antigen (human IL17A)
T1 sequence (looked up): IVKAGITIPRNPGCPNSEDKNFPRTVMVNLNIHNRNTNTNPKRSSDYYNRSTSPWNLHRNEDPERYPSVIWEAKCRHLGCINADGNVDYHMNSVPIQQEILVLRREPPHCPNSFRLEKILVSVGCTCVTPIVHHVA
Experiment: blocking ELISA, IL-17RC coated; antibody 1 ug/ml pre-mixed with human IL-17A 0.1 ug/ml; bound IL-17A detected
assay-endpoint: OD450 (OD450)
The reply should be a number in OD450, with the unit left off.

The binder PP10761 (antibody, human IgG4 S228P, kappa, V domains shown, Humanized, human IgG4/kappa; also called VH6665/VL6666) VH: EVQLVESGGGLVQPGGSLRLSCAASGFTFSTYGMSWVRQAPGKGLELVSIINHNGGSTFYPDSVKGRFTISRDNSKNTLYLQMNSLRAEDTAVYYCARDPRHDGYFFDYWGQGTLVTVSS VL: DIQMTQSPSSLSASVGDRVTITCQASEDIYDRLAWYQQKPGKAPKLLISGATSLETGVPSRFSGSGSGKDYTFTISSLQPEDIATYYCQQYWSVPWTFGGGTKVEIKR showed OD450 equal to 0.0688

The binder PP10763 (antibody, human IgG4 S228P, kappa, V domains shown, Humanized, human IgG4/kappa; also called VH6666/VL6665) VH: EVQLVESGGGLVQPGGSLRLSCAASGFTFSTYGMSWVRQAPGKGLELVAIINHNGGSTFYPDSVKGRFTVSRDNSKNTLYLQMNSLRAEDTAVYYCARDPRHDGYFFDYWGQGTLVTVSS VL: DIQMTQSPSSLSASVGDRVTITCQASEDIYDRLAWYQQKPGKAPKLLISGATSLETGVPSRFSGSGSGTDYTFTISSLQPEDIATYYCQQYWSVPWTFGGGTKVEIKR showed OD450 equal to 0.0721

The binder PP10766 (antibody, human IgG4 S228P, kappa, V domains shown, Humanized, human IgG4/kappa; also called VH6667/VL6665) VH: EVQLVESGGGVVQPGRSLRLSCAASGFTFSTYGMSWVRQAPGKGLELVAIINHNGGSTFYPDSVKGRFTISRDNSKNTLYLQMNSLRAEDTAVYYCARDPRHDGYFFDYWGQGTLVTVSS VL: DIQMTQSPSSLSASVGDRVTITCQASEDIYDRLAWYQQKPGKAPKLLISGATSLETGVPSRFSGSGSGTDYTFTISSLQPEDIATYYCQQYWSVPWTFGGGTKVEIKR showed OD450 equal to 0.0682

The binder PP10762 (antibody, human IgG4 S228P, kappa, V domains shown, Humanized, human IgG4/kappa; also called VH6665/VL6667) VH: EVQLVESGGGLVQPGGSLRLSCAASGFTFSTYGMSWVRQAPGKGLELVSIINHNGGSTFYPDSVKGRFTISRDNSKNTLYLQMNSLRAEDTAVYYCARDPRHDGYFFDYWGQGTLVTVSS VL: DIQMTQSPSSLSASVGDRVTITCRASEDIYDRLAWYQQKPGKAPNLLVSGATSLESGVPSRFSGSGSGKDYTLTISSLQPEDFATYYCQQYWSVPWTFGGGTKVEIKR showed OD450 equal to 0.0701

The binder PP10759 (antibody, human IgG4 S228P, kappa, V domains shown, expressed in HEK293; also called chimeric antibody PP10759; chimeric parental antibody) VH: EVQLVESGGGLVQPGGSLKLSCVASGFTFSTYGMSWVRQTPDKRLELVAIINHNGGSTFYPDSVKGRFTVSRDNAKNTLHLQMSSLKSEDTAMYYCARDPRHDGYFFDYWGQGTTLTVSS VL: DIQMTQSSPSFSVSLGDRVTITCKASEDIYDRLAWYQQKPGNAPRLLISGATSLETGIPSRFSGSRSGKDYTLDINSLQTEDAATYYCQQYWSVPWTFGGGTKLEIKR showed OD450 equal to 0.0888

Numbers sourced from patent US20210309735A1.
